Data provenance is ChEMBL document CHEMBL4425104.

test-description: Plasma clearance in Sprague-Dawley rat at 5 mg/kg, iv measured up to 24 hrs by LC-MS analysis
Assay type: ADME, organism-based
reported-metric: clearance (mL/min/kg)
Only the number, expressed in mL/min/kg, is required.

Enquiry: Which clearance is reported for this compound? "CC(C)N(CCc1c[nH]c2ccccc12)Cc1ccc(NCCCCCNC(=O)/C=C/c2cccnc2)cc1"
Return: 49

---

test-description: Half life in Sprague-Dawley rat at 25 mg/kg, po by LC-MS analysis
Assay type: ADME, organism-based
particulars: in vivo
reported-metric: half-life (h)
API: value field is a number in h; no unit string.

Enquiry: For "CC(C)N(CCc1c[nH]c2ccccc12)Cc1ccc(NCCCCCNC(=O)/C=C/c2cccnc2)cc1" , what is its reported half-life?
Return: 2.37
